# subject-of-test: Transcription factor p65 (Human, UniProt Q04206)
# Sequence (Q04206 whole entry): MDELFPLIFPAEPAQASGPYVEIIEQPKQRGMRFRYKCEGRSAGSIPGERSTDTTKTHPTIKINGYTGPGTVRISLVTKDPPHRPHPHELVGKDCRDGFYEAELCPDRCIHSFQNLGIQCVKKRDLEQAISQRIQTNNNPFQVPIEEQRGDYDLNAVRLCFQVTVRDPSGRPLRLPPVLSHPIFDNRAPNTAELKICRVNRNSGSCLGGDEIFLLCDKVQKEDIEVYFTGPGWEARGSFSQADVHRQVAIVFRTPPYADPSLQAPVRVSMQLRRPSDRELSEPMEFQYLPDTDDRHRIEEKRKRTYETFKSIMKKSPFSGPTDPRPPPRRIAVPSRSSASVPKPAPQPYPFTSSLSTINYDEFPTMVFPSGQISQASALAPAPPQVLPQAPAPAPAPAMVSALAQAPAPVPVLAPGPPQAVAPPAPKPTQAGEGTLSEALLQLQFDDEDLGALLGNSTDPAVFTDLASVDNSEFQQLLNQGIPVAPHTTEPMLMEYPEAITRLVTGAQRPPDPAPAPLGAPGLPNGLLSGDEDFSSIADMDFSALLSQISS
# protocol-description: Inhibition of NFkappa p65 isolated from nuclear extract of human HeLa cells assessed as blockade of binding to biotinylated consesus sequence by chemiluminescence assay
property: IC50

Examples with their reported IC50 follow.
compound | subject-of-test | IC50
C=C(C)[C@H]1Cc2c(oc3cc(O)c(CC=C(C)C)c(=O)c-3c2O)C2=C1C(=O)C(=O)C(CC=C(C)C)C2=O (stereo partly drawn) | Transcription factor p65 (Human, UniProt Q04206) | > 10 µM
CC1(C)C=Cc2cc3c(cc2O1)Oc1cc(O)ccc1C(=O)C3 | Transcription factor p65 (Human, UniProt Q04206) | > 10 µM

Continue with the compound presented below.
Task: I'm curious: which IC50 was measured for `C=C(C)[C@H]1Cc2c(oc3c4c(cc(=O)c-3c2O)OC(C)(C)C=C4)-c2c(O)cc(O)c(O)c21` tested on Transcription factor p65 (Human, UniProt Q04206)?
Result: 2.3 µM
